# System: SARS-CoV-2 Delta USA/MD-HP05647/2021 (Lineage B.1.617.2)
# test: microbe, parasite or virus in culture
# Type: cell-based
# experimental.conditions: Severe acute respiratory syndrome coronavirus 2, Vero C1008, 4 h; read-out: Vero E6 Delta CPE/EC50
quantity.measured: EC50

compound	quantity.measured	result
CC(C)(C)[C@H](NS(=O)(=O)c1ccc2c(c1)CCO2)C(=O)N1C[C@H]2[C@@H]([C@H]1C(=O)N[C@H](C#N)C[C@@H]1CCNC1=O)C2(C)C [Compound 83]	EC50	0.0204 µM
CN(C)C(=S)N[C@H](C(=O)N1C[C@H]2[C@@H]([C@H]1C(=O)N[C@H](C#N)C[C@@H]1CCNC1=O)C2(C)C)C(C)(C)C [Compound 77]	EC50	1.54 µM
CCNC(=S)N[C@H](C(=O)N1C[C@H]2[C@@H]([C@H]1C(=O)N[C@H](C#N)C[C@@H]1CCNC1=O)C2(C)C)C(C)(C)C [Compound 72]	EC50	0.261 µM
CC(C)(C)NC(=O)N[C@H](C(=O)N1C[C@H]2[C@@H]([C@H]1C(=O)N[C@H](C#N)C[C@@H]1CCNC1=O)C2(C)C)C(C)(C)C [Compound 87]	EC50	0.577 µM
CC(C)(C)[C@H](NC(=O)c1ccc2c(c1)CCC2)C(=O)N1C[C@H]2[C@@H]([C@H]1C(=O)N[C@H](C#N)C[C@@H]1CCNC1=O)C2(C)C [Compound 120]	EC50	8 µM
CC(C)(C)[C@H](NS(=O)(=O)c1ccns1)C(=O)N1C[C@H]2[C@@H]([C@H]1C(=O)N[C@H](C#N)C[C@@H]1CCNC1=O)C2(C)C [Compound 122]	EC50	0.18 µM
Cc1ccc(S(=O)(=O)N[C@H](C(=O)N2C[C@H]3[C@@H]([C@H]2C(=O)N[C@H](C#N)C[C@@H]2CCNC2=O)C3(C)C)C(C)(C)C)cc1 [Compound 96]	EC50	< 0.0045 µM
CC(C)(C)[C@H](NC(=O)C(F)(Cl)C(F)(F)F)C(=O)N1C[C@H]2[C@@H]([C@H]1C(=O)N[C@H](C#N)C[C@@H]1CCNC1=O)C2(C)C (some centres unmarked) [Compound 75]	EC50	0.045 µM
CC(C)(C)c1ccc(S(=O)(=O)N[C@H](C(=O)N2C[C@H]3[C@@H]([C@H]2C(=O)N[C@H](C#N)C[C@@H]2CCNC2=O)C3(C)C)C(C)(C)C)s1 [Compound 117]	EC50	0.337 µM
C=C(F)C(=O)N[C@H](C(=O)N1C[C@H]2[C@@H]([C@H]1C(=O)N[C@H](C#N)C[C@@H]1CCNC1=O)C2(C)C)C(C)(C)C [Compound 66]	EC50	0.0935 µM
CC(C)(C)[C@H](NC(=O)Cc1ccc2c(c1)CCC2)C(=O)N1C[C@H]2[C@@H]([C@H]1C(=O)N[C@H](C#N)C[C@@H]1CCNC1=O)C2(C)C [Compound 82]	EC50	0.00952 µM
